- SYSTEM_NAME: human αVβ6 (Homo sapiens, UniProt P06756+P18564)
- Sequence (P06756 31-992 limits assumed): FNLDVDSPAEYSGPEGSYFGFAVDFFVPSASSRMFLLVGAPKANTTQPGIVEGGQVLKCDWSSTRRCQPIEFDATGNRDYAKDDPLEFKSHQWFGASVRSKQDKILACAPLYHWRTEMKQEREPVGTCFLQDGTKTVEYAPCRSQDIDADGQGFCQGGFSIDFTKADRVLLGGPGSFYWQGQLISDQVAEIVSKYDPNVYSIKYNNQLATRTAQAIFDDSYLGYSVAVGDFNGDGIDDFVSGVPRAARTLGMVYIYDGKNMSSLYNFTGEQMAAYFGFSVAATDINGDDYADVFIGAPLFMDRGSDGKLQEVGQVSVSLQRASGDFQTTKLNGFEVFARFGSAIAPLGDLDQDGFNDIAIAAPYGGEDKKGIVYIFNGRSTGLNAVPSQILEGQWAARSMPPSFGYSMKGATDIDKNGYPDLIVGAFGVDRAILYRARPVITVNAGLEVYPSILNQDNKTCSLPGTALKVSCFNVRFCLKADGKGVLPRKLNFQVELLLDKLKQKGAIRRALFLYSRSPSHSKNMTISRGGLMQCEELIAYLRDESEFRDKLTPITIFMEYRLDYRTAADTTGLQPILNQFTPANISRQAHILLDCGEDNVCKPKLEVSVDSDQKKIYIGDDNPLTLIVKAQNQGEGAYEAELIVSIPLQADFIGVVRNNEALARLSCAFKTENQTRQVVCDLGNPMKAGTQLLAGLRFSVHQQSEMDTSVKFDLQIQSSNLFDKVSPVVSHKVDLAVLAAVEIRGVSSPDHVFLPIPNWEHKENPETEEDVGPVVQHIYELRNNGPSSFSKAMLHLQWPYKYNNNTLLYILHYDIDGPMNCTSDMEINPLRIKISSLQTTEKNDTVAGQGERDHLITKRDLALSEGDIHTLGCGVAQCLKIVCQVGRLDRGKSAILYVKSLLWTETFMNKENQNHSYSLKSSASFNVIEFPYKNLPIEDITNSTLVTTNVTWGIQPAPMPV
- Sequence (P18564 22-707 limits assumed): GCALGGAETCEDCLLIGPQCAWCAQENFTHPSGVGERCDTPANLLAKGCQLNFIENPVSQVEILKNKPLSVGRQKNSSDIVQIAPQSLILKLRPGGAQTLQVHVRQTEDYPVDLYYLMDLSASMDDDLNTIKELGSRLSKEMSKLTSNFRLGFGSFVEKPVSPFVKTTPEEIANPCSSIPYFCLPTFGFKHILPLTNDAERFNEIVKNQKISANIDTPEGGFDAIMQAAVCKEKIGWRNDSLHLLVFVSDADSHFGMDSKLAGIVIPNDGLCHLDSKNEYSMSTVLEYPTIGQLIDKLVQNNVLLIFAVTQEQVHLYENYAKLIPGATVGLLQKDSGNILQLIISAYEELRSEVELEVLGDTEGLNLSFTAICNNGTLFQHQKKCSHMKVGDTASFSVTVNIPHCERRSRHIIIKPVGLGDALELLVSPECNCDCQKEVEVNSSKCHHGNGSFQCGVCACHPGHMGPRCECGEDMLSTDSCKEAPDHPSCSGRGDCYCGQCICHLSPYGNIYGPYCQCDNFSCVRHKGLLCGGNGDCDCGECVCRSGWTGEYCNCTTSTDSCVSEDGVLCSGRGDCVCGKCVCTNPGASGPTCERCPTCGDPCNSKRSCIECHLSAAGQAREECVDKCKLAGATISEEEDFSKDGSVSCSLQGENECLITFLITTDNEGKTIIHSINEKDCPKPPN
- ASSAY_COMMENT: human αVβ6 HTRF binding assay
- PARTICULARS: recombinant human αVβ6 integrin, FITC-conjugated fibronectin
Structures can show the parent of a compound that is named as a salt.
EXPERIMENTAL_ENDPOINT: IC50 (nM)

INSERT INTO assay_data (compound, value_units, result_number) VALUES
  ('O=C(O)CC(c1ccccc1)n1ncc2cc(OCCCc3ccc4c(n3)NCCC4)ccc21 (stereo not drawn)', 'nM', 440),
  ('O=C(O)CC(c1cccc(-n2cccc2)c1)n1ncc2cc(OCCc3ccc4c(n3)NCCC4)ccc21 (stereo not drawn) [Example 59, TFA]', 'nM', 1.2),
  ('CNc1ncc(C(CC(=O)O)n2ncc3cc(OCCc4ccc5c(n4)NCCC5)ccc32)cn1 (stereo not drawn) [Example 112, TFA]', 'nM', 21),
  ('Cc1ncc([C@@H](CC(=O)O)n2ncc3cc(OCCc4ccc5c(n4)N[C@H](C)CC5)ccc32)cn1 (single isomer, unassigned)', 'nM', 6000),
  ('COc1ccc([C@H](CC(=O)O)n2ncc3cc(OCCc4ccc5c(n4)NCCO5)ccc32)cn1', 'nM', 15);

(a) O=C(O)CC(c1cnc2c(cnn2C2CCCCO2)c1)n1ncc2cc(OCCc3ccc4c(n3)NCCC4)ccc21 (stereo not drawn) [Example 103, TFA]
(b) O=C(O)CC(c1cnc2ccccc2n1)n1ncc2cc(CCc3ccc4c(n3)NCCC4)ccc21 (stereo not drawn)
**Q:** Higher IC50: a or b ? Answer format: the label of the selected item.
**A:** b

(1) O=C(O)CC(c1ccncc1)n1ncc2cc(OCCc3ccc4c(n3)NCCC4)ccc21 (stereo not drawn) [Example 75, TFA]
(2) O=C(O)CC(c1cncc(Cl)c1)n1ncc2cc(OCCc3ccc4c(n3)NCCC4)ccc21 (stereo not drawn) [Example 42, TFA]
**Q:** Select the item whose IC50 value is smaller, choosing between 1 and 2 . // output: label of the selected item
**A:** 2
(2: 4.4 nM, 1: 23 nM)

* * *

- SYSTEM_NAME: human αVβ6 (Homo sapiens, UniProt P06756+P18564)
- ASSAY_COMMENT: human αVβ6 HTRF binding assay
- PARTICULARS: recombinant human αVβ6 integrin, FITC-conjugated fibronectin
Counter-ions that a name gives are not always drawn.
EXPERIMENTAL_ENDPOINT: IC50 (nM)

Past entries and their recorded results:
INSERT INTO assay_data (compound, system_name, result_number) VALUES
  ('O=C(O)C[C@@H](c1cnc2nccnc2c1)n1ncc2cc(OCCc3ccc4c(n3)NCCC4)ccc21', 'human αVβ6 (Homo sapiens, UniProt P06756+P18564)', 480),
  ('CN(C)Cc1cncc(C(CC(=O)O)n2ncc3cc(OCCc4ccc5c(n4)NCCC5)ccc32)c1 (stereo not shown)', 'human αVβ6 (Homo sapiens, UniProt P06756+P18564)', 10);

(I) O=C(O)C[C@@H](c1cncc(C2OCCO2)c1)n1ncc2cc(OCCc3ccc4c(n3)NCCC4)ccc21
(II) O=C(O)CC(c1cnc(N2CCC2)nc1)n1ncc2cc(OCCc3ccc4c(n3)NCCC4)ccc21 (stereo not shown) [Example 119, TFA]
**Q:** Returns: the argument ( I or II ) having the larger IC50. Your choice should be expressed through its label.
**A:** II

meta.source: patent US10745384B2
